target: PAN endonuclease domain from influenza A type virus (H1N1) (PAN, residues 1-197) (Influenza A virus, UniProt P03433); construct: influenza A type virus (H1N1) (PAN, residues 1-197) was cloned; His tag (inferred from pET-28a vector and IMAC purification); made in house; host or cells: E. coli BL21 (DE3); format: biochemical; conditions: ssDNA, 1 h, 37 °C; conivaptan 0–[…], dutasteride 0–1000 μM, rifaximin 0–1000 μM, lurasidone 0–3000 μM (Figure S1)
metric: inhibition of the endonuclease activity of PAN (in words)

[[record]]
compound = "C[C@]12C=CC(=O)N[C@@H]1CC[C@@H]1[C@@H]2CC[C@]2(C)[C@@H](C(=O)Nc3cc(C(F)(F)F)ccc3C(F)(F)F)CC[C@@H]12 [dutasteride]"
observedvalue = "no inhibition"

[[record]]
compound = "CO[C@H]1/C=C/O[C@@]2(C)Oc3c(C)c(O)c4c(O)c(c5c(nc6cc(C)ccn65)c4c3C2=O)NC(=O)/C(C)=C\\C=C\\[C@H](C)[C@H](O)[C@@H](C)[C@@H](O)[C@@H](C)[C@H](OC(C)=O)[C@@H]1C [rifaximin]"
observedvalue = "no inhibition"

[[record]]
compound = "O=C1[C@@H]2[C@H]3CC[C@H](C3)[C@@H]2C(=O)N1C[C@@H]1CCCC[C@H]1CN1CCN(c2nsc3ccccc23)CC1 [lurasidone]"
observedvalue = "no inhibition"


Taken from paper PMC8659148.
